- tgt: human TLR7 (Homo sapiens, UniProt Q9NYK1)
- Construct: host or cells: HEK-Blue TLR7 cells (engineered human embryonic kidney cells)
- Sequence (Q9NYK1 27-1049): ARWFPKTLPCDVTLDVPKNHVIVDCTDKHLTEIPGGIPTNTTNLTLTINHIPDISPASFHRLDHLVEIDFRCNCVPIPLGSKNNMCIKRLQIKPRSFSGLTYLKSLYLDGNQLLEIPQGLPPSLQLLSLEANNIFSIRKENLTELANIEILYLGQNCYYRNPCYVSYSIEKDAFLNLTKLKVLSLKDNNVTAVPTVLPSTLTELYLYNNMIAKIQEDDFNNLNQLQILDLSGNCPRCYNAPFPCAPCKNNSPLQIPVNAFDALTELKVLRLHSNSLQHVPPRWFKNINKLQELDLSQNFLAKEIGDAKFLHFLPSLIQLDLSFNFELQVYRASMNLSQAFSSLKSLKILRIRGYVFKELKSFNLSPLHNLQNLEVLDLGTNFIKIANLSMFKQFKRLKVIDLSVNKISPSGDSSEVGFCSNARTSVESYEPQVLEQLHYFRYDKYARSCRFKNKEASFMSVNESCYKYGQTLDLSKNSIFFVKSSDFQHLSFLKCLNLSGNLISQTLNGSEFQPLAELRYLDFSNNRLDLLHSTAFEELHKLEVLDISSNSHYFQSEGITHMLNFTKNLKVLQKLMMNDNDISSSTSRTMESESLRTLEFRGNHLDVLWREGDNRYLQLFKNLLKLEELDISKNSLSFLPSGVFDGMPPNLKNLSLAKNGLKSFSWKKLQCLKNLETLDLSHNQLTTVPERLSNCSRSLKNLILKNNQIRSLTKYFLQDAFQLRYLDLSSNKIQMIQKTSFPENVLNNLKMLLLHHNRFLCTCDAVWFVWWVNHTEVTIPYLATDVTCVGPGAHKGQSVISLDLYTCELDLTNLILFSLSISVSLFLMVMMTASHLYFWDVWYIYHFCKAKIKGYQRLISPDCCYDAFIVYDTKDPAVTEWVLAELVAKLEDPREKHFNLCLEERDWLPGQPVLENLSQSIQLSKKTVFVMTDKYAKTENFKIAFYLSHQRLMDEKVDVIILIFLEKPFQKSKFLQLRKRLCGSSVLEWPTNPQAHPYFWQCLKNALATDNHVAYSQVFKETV
- protocol text: Human TLR7 agonist activity (hTLR7 reporter) assay in HEK-Blue TLR7 cells, SEAP readout
- Type: cell-based
- condition description: 18 h treatment, average where assay repeated
experimental readout: EC50 (nM)

[[record]]
smiles_data = "COc1cc(C(=O)N2CC3(CNC3)C2)ccc1Cn1ncc2nc(N)nc(NCC3CC4(CCC4)C3)c21"
tgt = "human TLR7 (Homo sapiens, UniProt Q9NYK1)"
experimental_readout = "EC50"
output_unit = "nM"
readout_value = 728


I = CCC[C@@H](CCO)Nc1nc(N)nc2c(C)nn(Cc3ccc(CN4CC5(CNC5)C4)cc3OC)c12
II = COc1cc(C(=O)N2CC3(COC3)C2)ccc1Cn1ncc2nc(N)nc(NCC3CC4(CC4)C3)c21
III = COc1cc(CN2CCN(CCO)CC2)ccc1Cn1ncc2nc(N)nc(NCC3CC4(CC4)C3)c21
Rank entries according to their EC50, from the largest number down. Reply with the item labels sorted in the order that was asked for.
I, II, III

====

- tgt: human TLR7 (Homo sapiens, UniProt Q9NYK1)
- Construct: host or cells: HEK-Blue TLR7 cells (engineered human embryonic kidney cells)
- Sequence (Q9NYK1 27-1049): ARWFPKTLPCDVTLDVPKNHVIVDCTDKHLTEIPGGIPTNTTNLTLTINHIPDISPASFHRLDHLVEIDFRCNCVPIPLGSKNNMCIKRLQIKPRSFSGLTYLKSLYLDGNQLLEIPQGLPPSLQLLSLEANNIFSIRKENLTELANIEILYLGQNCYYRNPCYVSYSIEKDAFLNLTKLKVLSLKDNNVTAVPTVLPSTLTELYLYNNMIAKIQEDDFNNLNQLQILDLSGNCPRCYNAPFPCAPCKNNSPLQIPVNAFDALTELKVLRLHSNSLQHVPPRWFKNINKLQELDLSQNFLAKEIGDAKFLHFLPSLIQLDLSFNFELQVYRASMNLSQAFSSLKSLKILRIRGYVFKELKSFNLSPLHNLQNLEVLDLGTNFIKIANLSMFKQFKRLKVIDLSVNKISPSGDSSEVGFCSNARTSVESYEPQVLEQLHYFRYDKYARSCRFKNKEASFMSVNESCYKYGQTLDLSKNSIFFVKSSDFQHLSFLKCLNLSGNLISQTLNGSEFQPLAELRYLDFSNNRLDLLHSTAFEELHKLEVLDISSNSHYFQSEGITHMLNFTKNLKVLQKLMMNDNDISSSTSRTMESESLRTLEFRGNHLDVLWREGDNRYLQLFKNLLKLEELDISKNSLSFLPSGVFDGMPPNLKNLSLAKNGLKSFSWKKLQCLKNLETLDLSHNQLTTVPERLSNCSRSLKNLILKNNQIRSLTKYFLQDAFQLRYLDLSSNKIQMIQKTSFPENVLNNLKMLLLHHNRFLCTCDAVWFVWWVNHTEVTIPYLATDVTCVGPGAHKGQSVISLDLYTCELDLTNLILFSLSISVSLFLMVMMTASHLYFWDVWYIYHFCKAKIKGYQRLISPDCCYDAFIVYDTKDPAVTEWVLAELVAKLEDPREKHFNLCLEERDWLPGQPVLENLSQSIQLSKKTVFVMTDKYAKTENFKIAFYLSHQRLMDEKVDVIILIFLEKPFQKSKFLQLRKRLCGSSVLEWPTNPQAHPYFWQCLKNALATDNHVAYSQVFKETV
- protocol text: Human TLR7 agonist activity (hTLR7 reporter) assay in HEK-Blue TLR7 cells, SEAP readout
- Assay type: cell-based
- condition description: 18 h treatment, average where assay repeated
experimental readout: EC50 (µM)

[[record]]
molecule = "CCC[C@@H](CCO)Nc1nc(N)nc2cnn(Cc3ccc(CN4CC5(CCOCC5)C4)cc3OC)c12 [Compound 113]"
tgt = "human TLR7 (Homo sapiens, UniProt Q9NYK1)"
experimental_readout = "EC50"
output_unit = "µM"
readout_value = 0.0046

[[record]]
molecule = "COc1cc(CN2CC3(CNC3)C2)ccc1Cn1ncc2nc(N)nc(NCC3CC(C4CC4)C3)c21 (centres unmarked) [Compound 152]"
tgt = "human TLR7 (Homo sapiens, UniProt Q9NYK1)"
experimental_readout = "EC50"
output_unit = "µM"
readout_value = 0.167

[[record]]
molecule = "COc1cc(C(=O)N2CCN(S(C)(=O)=O)CC2)ccc1Cn1ncc2nc(N)nc(NCC3CC4(CC4)C3)c21 [Compound 236]"
tgt = "human TLR7 (Homo sapiens, UniProt Q9NYK1)"
experimental_readout = "EC50"
output_unit = "µM"
readout_value = 0.199

[[record]]
molecule = "CCC[C@@H](CCO)Nc1nc(N)nc2c(F)nn(Cc3ccc(CN4CC5(CNC5)C4)cc3OC)c12 [Compound 245]"
tgt = "human TLR7 (Homo sapiens, UniProt Q9NYK1)"
experimental_readout = "EC50"
output_unit = "µM"
readout_value = 0.0406

[[record]]
molecule = "CCC[C@@H](CCO)Nc1nc(N)nc2cnn(Cc3ncc(C4=CC5(CCN(CC(C)C)CC5)C4)cc3OC)c12 [Compound 275]"
tgt = "human TLR7 (Homo sapiens, UniProt Q9NYK1)"
experimental_readout = "EC50"
output_unit = "µM"
readout_value = 0.011


A = COc1cc(CN2CC3(C2)CS(=O)(=O)C3)ccc1Cn1ncc2nc(N)nc(NCc3noc(C)n3)c21 [Compound 254]
B = COc1cc(CN2C[C@H]3CNC[C@H]3C2)ccc1Cn1ncc2nc(N)nc(NCC3CC4(CC4)C3)c21 [Compound 169]
Could you kindly indicate whether A or B has the higher EC50 value? When you have decided, please share the label of that item.
A
(A: 0.244 µM, B: 0.028 µM)

a = CCC[C@@H](CCO)Nc1nc(N)nc2cnn(Cc3ccc(CN4CC5(CN(C)C5)C4)cc3OC)c12 [Compound 215]
b = COc1cc(CN2C[C@H]3CNC[C@H]3C2)ccc1Cn1ncc2nc(N)nc(NCC3CC4(C3)CC4F)c21 (some centres unmarked) [Compound 126]
c = COc1cc(CN2CC3(CC(O)C3)C2)ccc1Cn1ncc2nc(N)nc(NCC3CC4(CCC4)C3)c21 (centres unmarked) [Compound 158]
d = COc1cc(CNC2CCC2)ccc1Cn1ncc2nc(N)nc(NCC3CC4(CC4)C3)c21 [Compound 129]
Output the entries ranked by EC50 from maximum down to minimum. Dear reader, please state the labels in the requested order.
a, b, c, d
